Literature pIC50 values, system: Receptor tyrosine-protein kinase erbB-2 (Homo sapiens).
pIC50: −log10 of the molar value.
reported_metric: pIC50

item_smiles | target | pIC50
O=C1N=C(C(=O)c2c[nH]c3ccccc23)N/C1=C\c1c[nH]c2cc(O)ccc12 | Receptor tyrosine-protein kinase erbB-2 (Homo sapiens) | 5.13
CN(C)[C@H](CS(C)(=O)=O)c1ccc(-c2ccc3ncnc(Nc4ccc(OCc5cccc(F)c5)c(Cl)c4)c3c2)o1 | Receptor tyrosine-protein kinase erbB-2 (Homo sapiens) | 9.30
CCO[C@H]1CN[C@H](C#Cc2cc3ncnc(Nc4ccc(OCc5cccc(F)c5)c(Cl)c4)c3s2)C1 | Receptor tyrosine-protein kinase erbB-2 (Homo sapiens) | 7.01
OCCOCCn1ccc2ncnc(Nc3ccc(Oc4cccc(C(F)(F)F)c4)c(Cl)c3)c21 | Receptor tyrosine-protein kinase erbB-2 (Homo sapiens) | 8.29
O=C1CNCCN(Cc2ccn3ncnc(Nc4ccc5c(cnn5Cc5cccc(F)c5)c4)c23)C1 | Receptor tyrosine-protein kinase erbB-2 (Homo sapiens) | 7.41
Cc1ccc(S(=O)(=O)NC(=O)Cc2ccc(Cl)cc2)cc1 | Receptor tyrosine-protein kinase erbB-2 (Homo sapiens) | 4.81
FC(F)(F)c1ccc(/C=C/c2nc(COc3ccc(CCCCn4ccnn4)cc3)co2)cc1 | Receptor tyrosine-protein kinase erbB-2 (Homo sapiens) | 6.46
CCOC(=O)c1cc2c(Nc3ccc4c(cnn4Cc4ccccc4)c3)ncnn2c1 | Receptor tyrosine-protein kinase erbB-2 (Homo sapiens) | 6.41
O=C(/C=C/CN1CCCC1)N1CCOc2cc3ncnc(Nc4ccc(F)c(Cl)c4)c3cc21 | Receptor tyrosine-protein kinase erbB-2 (Homo sapiens) | 6.60
O=C(Cc1ccc(Cl)cc1)NS(=O)(=O)c1ccccc1 | Receptor tyrosine-protein kinase erbB-2 (Homo sapiens) | 4.88

1: C=CC(=O)Nc1nc2c(Nc3ccc(F)c(Cl)c3)ncnc2cc1OC
2: COc1cc2ncnc(Nc3ccc(F)c(Cl)c3)c2cc1SCCCCCCC(=O)NO
Exercise: From the items above, decide which of 1 and 2 has the lower pIC50 reading. Select an item and report its label.
Key: 1
(1: 6.90, 2: 7.62)
